We begin with a simple list: items and their reported pEC50.
Molecular target: T1, human interleukin 13 receptor subunit alpha 2 (IL-13RA2) (human, UniProt Q14627 27-380)
T1 construct: whole, on cells; also called IL-13Rα2; CD213A2
T1 sequence (looked up): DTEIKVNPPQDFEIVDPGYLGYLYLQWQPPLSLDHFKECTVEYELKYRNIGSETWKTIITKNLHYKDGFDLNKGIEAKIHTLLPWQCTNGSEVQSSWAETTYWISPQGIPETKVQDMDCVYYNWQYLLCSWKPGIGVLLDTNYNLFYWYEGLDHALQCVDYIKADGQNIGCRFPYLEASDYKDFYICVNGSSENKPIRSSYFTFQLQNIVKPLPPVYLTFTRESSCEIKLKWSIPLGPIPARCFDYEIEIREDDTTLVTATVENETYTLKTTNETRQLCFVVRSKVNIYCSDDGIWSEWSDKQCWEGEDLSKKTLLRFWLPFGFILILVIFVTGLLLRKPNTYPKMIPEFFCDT
Assay: FACS on A375 cells
pEC50: −log10 of the molar value.

[
  {
    "binder": "42E3C4 (antibody, V domains shown, purified mouse antibody) VH: EVKLVESGGGLVRPGGSLKISCAASGFTFSTYGMSWVRQTPEKRLEWVATISGGGSYTYYPDSVKGRFTISRDNAKNNLYLQMSSLRSEDTALYYCARRDLRSAMDYWGQGTSVTVSS VL: DIVMTQSQKFMSTSVGDRVSVTCKASQNVDINVAWYQQKPGQSPKALIYSASFRYSGVPDRFTGSGSGTDFTLTISNVQSEDLAEYFCQQYNSYPLTFGGGTKLEIK",
    "pEC50": 9.28
  },
  {
    "binder": "34A5G9 (antibody, V domains shown, purified mouse antibody) VH: EVHLQQSGPELVKPGASVKISCKTSGYTFTEYTMHWVKQSHGKSLEWIGRINPNNGIAEYKQTFKDKATLAVDKSSSTAYMEFRSLTSEDSAVYYCARGEGYGYWFAYWGQGTLVTVSA VL: DIQMTQSPASLSASVGETVTITCRTSDNIYSYLAWYQQRQGKSPQLLVSNARTLAEGVPSRFSGSGSGTQFSLKINSLQPEDFGIYYCQHHSGTPFTFGSGTNLEIE",
    "pEC50": 9.17
  },
  {
    "binder": "61H8C1 (antibody, V domains shown, purified mouse antibody) VH: QVQLQQSGAELARPGASVMLSCKASGYTFTSYWTQWIKQRPGQGLEGIGAIYPGDDDTSYNQKFKGKATLTADKSSSTAYMQLNSLTSEDSAVYYCARGATLLRPFPYWGQGTLVTVSA VL: DIVMTQSHKFMSTSVGDRVSITCKASQDVSTAVAWYQQKPGQSPKLLIYSASYRYTGVPDRFTGSGSGTDFTFTISSVQAEDLAVYSCQQHYSIPPTFGGGTKLEIK",
    "pEC50": 9.39
  },
  {
    "binder": "62F6A8 (antibody, V domains shown, purified mouse antibody) VH: QVQIQQSGAELARPGASVMLSCKASGYTFTDYWMQWIKQRPGQGLEGIGAIYPGDGDTAYNQKFRGKATLTADKSSSTAYMQLNSLASEDSAVYFCARGATLLRPFPFWGQGTLVTVSA VL: DIVMTQSHKFMSTSVGDRVSITCKASQDVSTAVAWYQQKPGQSPKLLIYSASYRYAGVPDRFTGSGSGTDFTFTISSVQAEDLAVYSCQQHYSIPPTFGGGTKLEIK",
    "pEC50": 9.17
  }
]
